Test system: SF-268
Experiment: cells
Details: Homo sapiens, SF-268, 48 h, read-out: LC50
Reported CC50 by item:

Compound	CC50
CN(C)c1nc(NCCNS(=O)(=O)c2ccc(C3=Nc4c(N)nc(N)nc4NC(c4ccccc4)C3)cc2)nc(Nc2ccc(F)cc2)n1 (stereo not drawn) [31a]	> 100 µM
Cc1ccc(C2CC(c3ccc(S(=O)(=O)NCCNc4nc(Nc5ccc(F)cc5)nc(N(C)C)n4)cc3)=Nc3c(N)nc(N)nc3N2)cc1 (stereo not drawn) [31b]	> 100 µM
COc1cc(/C=C/C(=O)c2cc(OC)c(OC)c(OC)c2)ccc1Oc1nc(Nc2ccc(F)cc2)nc(N(C)C)n1 [21d]	> 100 µM
CN(C)c1nc(NCCNS(=O)(=O)c2ccc(C(=O)/C=C/c3ccccc3)cc2)nc(Nc2ccc(F)cc2)n1 [24a]	65.2 µM
CN(C)c1nc(NCCNS(=O)(=O)c2ccc(C(=O)/C=C/c3ccc(F)cc3)cc2)nc(N2CCOCC2)n1 [23f]	94 µM
COc1cc(/C=C/C(=O)c2ccc(C)cc2)ccc1Oc1nc(NCCO)nc(N2CCOCC2)n1 [20b]	> 100 µM

----------
System: A498
Test: cells
Conditions: Homo sapiens, A498, 48 h, read-out: LC50
Reported CC50 by item:

Molecule	CC50
Nc1nc(N)c2c(n1)NC(c1ccccc1)CC(c1ccc(Nc3nc(NCCO)nc(Nc4ccc(Cl)cc4)n3)cc1)=N2 (stereo not drawn) [33a]	5.96 µM
CN(C)c1nc(NCCNS(=O)(=O)c2ccc(C3=Nc4c(N)nc(N)nc4NC(c4ccc(Cl)cc4)C3)cc2)nc(Nc2ccc(F)cc2)n1 (stereo not drawn) [31e]	> 100 µM
CN(C)c1nc(NCCNS(=O)(=O)c2ccc(C(=O)/C=C/c3ccccc3)cc2)nc(N2CCOCC2)n1 [23a]	52.9 µM
Cc1ccc(C2CC(c3ccc(S(=O)(=O)NCCNc4nc(Nc5ccc(F)cc5)nc(N(C)C)n4)cc3)=Nc3c(N)nc(N)nc3N2)cc1 (stereo not drawn) [31b]	> 100 µM
COc1cc(/C=C/C(=O)c2ccccc2)ccc1Oc1nc(Nc2ccc(F)cc2)nc(N(C)C)n1 [21a]	> 100 µM
Nc1nc(N)c2c(n1)NC(c1ccc(Cl)cc1)CC(c1ccc(Nc3nc(NCCO)nc(Nc4ccc(Cl)cc4)n3)cc1)=N2 (stereo not drawn) [33e]	44.5 µM
CN(C)c1nc(NCCNS(=O)(=O)c2ccc(C3=Nc4c(N)nc(N)nc4NC(c4ccc(F)cc4)C3)cc2)nc(Nc2ccc(F)cc2)n1 (stereo not drawn) [31f]	> 100 µM
CN(C)c1nc(NCCNS(=O)(=O)c2ccc(C(=O)/C=C/c3ccc(C(F)(F)F)cc3)cc2)nc(Nc2ccc(F)cc2)n1 [24g]	26.2 µM
Cc1ccc(/C=C/C(=O)c2ccc(S(=O)(=O)NCCNc3nc(Nc4ccc(F)cc4)nc(N(C)C)n3)cc2)cc1 [24b]	51.4 µM
CN(C)c1nc(NCCNS(=O)(=O)c2ccc(C(=O)/C=C/c3ccc(F)cc3)cc2)nc(Nc2ccc(F)cc2)n1 [24f]	19.3 µM
COc1cc(C2CC(c3ccc(Cl)cc3)=Nc3c(N)nc(N)nc3N2)ccc1Oc1nc(Nc2ccc(F)cc2)nc(N(C)C)n1 (stereo not drawn) [29e]	> 100 µM
CN(C)c1nc(NCCNS(=O)(=O)c2ccc(C(=O)/C=C/c3ccc(F)cc3)cc2)nc(N2CCOCC2)n1 [23f]	49.9 µM
Nc1nc(N)c2c(n1)NC(c1ccc(F)cc1)CC(c1ccc(Nc3nc(NCCO)nc(Nc4ccc(Cl)cc4)n3)cc1)=N2 (stereo not drawn) [33f]	39.1 µM
COc1cc(/C=C/C(=O)c2cc(OC)c(OC)c(OC)c2)ccc1Oc1nc(Nc2ccc(F)cc2)nc(N(C)C)n1 [21d]	38.9 µM
CN(C)c1nc(NCCNS(=O)(=O)c2ccc(C(=O)/C=C/c3ccc(Cl)cc3)cc2)nc(N2CCOCC2)n1 [23e]	50.8 µM

----------
Test system: HOP-92
Assay: cells
Conditions: Homo sapiens, HOP-92, 48 h, read-out: LC50
Reported CC50 by item:

Molecule	Limit Operator	CC50 [µM]
Cc1ccc(C2CC(c3ccc(Nc4nc(NCCO)nc(Nc5ccc(Cl)cc5)n4)cc3)=Nc3c(N)nc(N)nc3N2)cc1 (stereo not shown) [33b]	=	6.3
CN(C)c1nc(NCCNS(=O)(=O)c2ccc(C3=Nc4c(N)nc(N)nc4NC(c4ccccc4)C3)cc2)nc(Nc2ccc(F)cc2)n1 (stereo not shown) [31a]	=	9.96
COc1cc(/C=C/C(=O)c2ccc(C)cc2)ccc1Oc1nc(Nc2ccc(F)cc2)nc(N(C)C)n1 [21b]	>	100
CN(C)c1nc(NCCNS(=O)(=O)c2ccc(C3=Nc4c(N)nc(N)nc4NC(c4ccc(Cl)cc4)C3)cc2)nc(Nc2ccc(F)cc2)n1 (stereo not shown) [31e]	=	13.2
Nc1nc(N)c2c(n1)NC(c1ccccc1)CC(c1ccc(Nc3nc(NCCO)nc(Nc4ccc(Cl)cc4)n3)cc1)=N2 (stereo not shown) [33a]	=	6.74
CN(C)c1nc(NCCNS(=O)(=O)c2ccc(C3=Nc4c(N)nc(N)nc4NC(c4ccc(C(F)(F)F)cc4)C3)cc2)nc(Nc2ccc(F)cc2)n1 (stereo not shown) [31g]	=	16.9
CN(C)c1nc(NCCNS(=O)(=O)c2ccc(C3=Nc4c(N)nc(N)nc4NC(c4ccc(F)cc4)C3)cc2)nc(Nc2ccc(F)cc2)n1 (stereo not shown) [31f]	=	23.3

----------
System: KM12
Test: cells
Conditions: Homo sapiens, KM12, 48 h

Molecule	Target Under Test	GI50, µM
Cc1ccc(C2CC(c3ccc(Nc4nc(NCCO)nc(Nc5ccc(Cl)cc5)n4)cc3)=Nc3c(N)nc(N)nc3N2)cc1 (stereo not drawn) [33b]	KM12	1.97
Nc1nc(N)c2c(n1)NC(c1ccccc1)CC(c1ccc(Nc3nc(NCCO)nc(Nc4ccc(Cl)cc4)n3)cc1)=N2 (stereo not drawn) [33a]	KM12	1.9
CN(C)c1nc(NCCNS(=O)(=O)c2ccc(C(=O)/C=C/c3ccc(Cl)cc3)cc2)nc(Nc2ccc(F)cc2)n1 [24e]	KM12	2.97
CN(C)c1nc(NCCNS(=O)(=O)c2ccc(C(=O)/C=C/c3ccccc3)cc2)nc(N2CCOCC2)n1 [23a]	KM12	2
COc1cc(/C=C/C(=O)c2ccc(C)cc2)ccc1Oc1nc(Nc2ccc(F)cc2)nc(N(C)C)n1 [21b]	KM12	19.3
COc1cc(/C=C/C(=O)c2ccccc2)ccc1Oc1nc(Nc2ccc(F)cc2)nc(N(C)C)n1 [21a]	KM12	14.9
CN(C)c1nc(NCCNS(=O)(=O)c2ccc(C(=O)/C=C/c3ccc(F)cc3)cc2)nc(N2CCOCC2)n1 [23f]	KM12	13.4
CN(C)c1nc(NCCNS(=O)(=O)c2ccc(C3=Nc4c(N)nc(N)nc4NC(c4ccc(Cl)cc4)C3)cc2)nc(Nc2ccc(F)cc2)n1 (stereo not drawn) [31e]	KM12	3.98
CN(C)c1nc(NCCNS(=O)(=O)c2ccc(C(=O)/C=C/c3ccc(C(F)(F)F)cc3)cc2)nc(N2CCOCC2)n1 [23g]	KM12	8.95
CN(C)c1nc(NCCNS(=O)(=O)c2ccc(C3=Nc4c(N)nc(N)nc4NC(c4ccc(C(F)(F)F)cc4)C3)cc2)nc(N2CCOCC2)n1 (stereo not drawn) [30g]	KM12	37
COc1cc(/C=C/C(=O)c2cc(OC)c(OC)c(OC)c2)ccc1Oc1nc(NCCO)nc(N2CCOCC2)n1 [20d]	KM12	2.99
COc1cc(/C=C/C(=O)c2ccc(S(=O)(=O)NCCNc3nc(N(C)C)nc(N4CCOCC4)n3)cc2)cc(OC)c1OC [23d]	KM12	1.7
Cc1ccc(C2CC(c3ccc(S(=O)(=O)NCCNc4nc(Nc5ccc(F)cc5)nc(N(C)C)n4)cc3)=Nc3c(N)nc(N)nc3N2)cc1 (stereo not drawn) [31b]	KM12	4.56
CN(C)c1nc(NCCNS(=O)(=O)c2ccc(C(=O)/C=C/c3ccccc3)cc2)nc(Nc2ccc(F)cc2)n1 [24a]	KM12	3.74
COc1ccc(/C=C/C(=O)c2ccc(S(=O)(=O)NCCNc3nc(Nc4ccc(F)cc4)nc(N(C)C)n3)cc2)cc1 [24c]	KM12	4.01

----------
System: NCI-H522
Experiment: cells
Conditions: Homo sapiens, NCI-H522, 48 h, read-out: LC50
Reported CC50 by item:

Compound	Limit Operator	CC50, µM
CN(C)c1nc(NCCNS(=O)(=O)c2ccc(C3=Nc4c(N)nc(N)nc4NC(c4ccc(C(F)(F)F)cc4)C3)cc2)nc(N2CCOCC2)n1 (stereo not shown) [30g]	>	100
CN(C)c1nc(NCCNS(=O)(=O)c2ccc(C(=O)/C=C/c3ccccc3)cc2)nc(N2CCOCC2)n1 [23a]	=	54.1
Nc1nc(N)c2c(n1)NC(c1ccc(C(F)(F)F)cc1)CC(c1ccc(Nc3nc(NCCO)nc(Nc4ccc(Cl)cc4)n3)cc1)=N2 (stereo not shown) [33g]	=	5.54
Nc1nc(N)c2c(n1)NC(c1ccccc1)CC(c1ccc(Nc3nc(NCCO)nc(Nc4ccc(Cl)cc4)n3)cc1)=N2 (stereo not shown) [33a]	=	6.77
CN(C)c1nc(NCCNS(=O)(=O)c2ccc(C(=O)/C=C/c3ccc(F)cc3)cc2)nc(N2CCOCC2)n1 [23f]	=	53.2
Cc1ccc(C2CC(c3ccc(S(=O)(=O)NCCNc4nc(Nc5ccc(F)cc5)nc(N(C)C)n4)cc3)=Nc3c(N)nc(N)nc3N2)cc1 (stereo not shown) [31b]	>	100
CN(C)c1nc(NCCNS(=O)(=O)c2ccc(C3=Nc4c(N)nc(N)nc4NC(c4ccccc4)C3)cc2)nc(Nc2ccc(F)cc2)n1 (stereo not shown) [31a]	>	100
CN(C)c1nc(NCCNS(=O)(=O)c2ccc(C3=Nc4c(N)nc(N)nc4NC(c4ccc(F)cc4)C3)cc2)nc(Nc2ccc(F)cc2)n1 (stereo not shown) [31f]	>	100
CN(C)c1nc(NCCNS(=O)(=O)c2ccc(C(=O)/C=C/c3ccccc3)cc2)nc(Nc2ccc(F)cc2)n1 [24a]	=	53.6
COc1cc(/C=C/C(=O)c2ccc(S(=O)(=O)NCCNc3nc(N(C)C)nc(N4CCOCC4)n3)cc2)cc(OC)c1OC [23d]	=	6.37
COc1cc(/C=C/C(=O)c2ccc(S(=O)(=O)NCCNc3nc(Nc4ccc(F)cc4)nc(N(C)C)n3)cc2)cc(OC)c1OC [24d]	=	50
COc1cc(C2CC(c3ccc(Cl)cc3)=Nc3c(N)nc(N)nc3N2)ccc1Oc1nc(Nc2ccc(F)cc2)nc(N(C)C)n1 (stereo not shown) [29e]	>	100
CN(C)c1nc(NCCNS(=O)(=O)c2ccc(C3=Nc4c(N)nc(N)nc4NC(c4ccc(Cl)cc4)C3)cc2)nc(Nc2ccc(F)cc2)n1 (stereo not shown) [31e]	>	100
